Where do these numbers come from? They come from ChEMBL document CHEMBL4028912.

test system: Mycobacterium tuberculosis; experiment: Binding affinity to Mycobacterium tuberculosis CYP121A1 expressed in Escherichia coli TG1 (DE3) assessed as Soret peak shift by UV-visible scanning spectrophotometric analysis
Measurement Kind: Activity

See these solved cases before continuing.
1. COc1ccc(-c2nn(-c3ccccc3)cc2C(=O)NCCn2ccnc2)cc1
416 to 418 nm
2. c1ccc(-c2nn(-c3ccccc3)cc2Cn2ccnc2)cc1
416 to 424 nm
3. Clc1ccc(-c2nn(-c3ccccc3)cc2Cn2ccnc2)cc1
416 to 422 nm
4. Brc1ccc(-c2nn(-c3ccccc3)cc2Cn2cncn2)cc1
416 to 418 nm

Please look at the following molecule next.
For record O=C(NCCn1ccnc1)c1cn(-c2ccccc2)nc1-c1ccccc1 the listed Activity is 416 to 418 nm

* * *

Answer each item with its documented pKd.
assay: Binding affinity to Mycobacterium tuberculosis CYP121A1 expressed in Escherichia coli TG1 (DE3) by UV-visible scanning spectrophotometric analysis
Numbers only, as −log10 of the molar value.

See these solved cases before continuing.
1. COc1ccc(-c2nn(-c3ccccc3)cc2Cn2ccnc2)cc1
4.94
2. Clc1ccc(-c2nn(-c3ccccc3)cc2Cn2ccnc2)cc1
5.13
3. Ic1ccc(-c2nn(-c3ccccc3)cc2Cn2ccnc2)cc1
4.87
4. c1ccc(-c2nn(-c3ccccc3)cc2Cn2ccnc2)cc1
5.58

Could I get pKd for every one of these entries?
1. N#Cc1ccc(-c2nn(-c3ccccc3)cc2Cn2ccnc2)cc1
2. O=C(NCCn1ccnc1)c1cn(-c2ccccc2)nc1-c1ccccc1

Out:
1. 4.34
2. 3.40

* * *

test system: Mycobacterium tuberculosis; assay: Binding affinity to Mycobacterium tuberculosis CYP121A1 expressed in Escherichia coli TG1 (DE3) assessed as Soret peak shift by UV-visible scanning spectrophotometric analysis
Answer each item with its documented Activity.

1. N#Cc1ccc(-c2nn(-c3ccccc3)cc2Cn2ccnc2)cc1
416 to 418 nm
2. Fc1ccc(-c2nn(-c3ccccc3)cc2Cn2cncn2)cc1
416 to 423 nm
3. Cc1ccc(-c2nn(-c3ccccc3)cc2C(=O)NCCn2ccnc2)cc1
416 to 418 nm
4. c1ccc(-c2nn(-c3ccccc3)cc2Cn2cncn2)cc1
416 to 422 nm
5. Clc1ccc(-c2nn(-c3ccccc3)cc2Cn2cncn2)cc1
416 to 421 nm
6. Brc1ccc(-c2nn(-c3ccccc3)cc2Cn2ccnc2)cc1
416 to 420 nm
7. COc1ccc(-c2nn(-c3ccccc3)cc2Cn2ccnc2)cc1
416 to 421 nm

Please look at the following molecule next.
For record Cc1ccc(-c2nn(-c3ccccc3)cc2Cn2ccnc2)cc1 the listed Activity is 416 to 422 nm

* * *

system: Mycobacterium tuberculosis; test: Binding affinity to Mycobacterium tuberculosis CYP121A1 expressed in Escherichia coli TG1 (DE3) assessed as Soret peak shift by UV-visible scanning spectrophotometric analysis
The source made the active and inactive calls. No cut-off for these calls is given here.
Measurement Kind: Activity

See these solved cases before continuing.
1. N#Cc1ccc(-c2nn(-c3ccccc3)cc2Cn2cncn2)cc1
inactive
2. Fc1ccc(-c2nn(-c3ccccc3)cc2Cn2ccnc2)cc1
416 to 424 nm
3. Cc1ccc(-c2nn(-c3ccccc3)cc2Cn2cncn2)cc1
416 to 418 nm
4. Ic1ccc(-c2nn(-c3ccccc3)cc2Cn2ccnc2)cc1
416 to 422 nm
5. COc1ccc(-c2nn(-c3ccccc3)cc2Cn2cncn2)cc1
416 to 420 nm

Please look at the following compound next.
For record O=C(NCCn1ccnc1)c1cn(-c2ccccc2)nc1-c1ccc(F)cc1 the listed Activity is inactive

* * *

experiment: Binding affinity to Mycobacterium tuberculosis CYP121A1 expressed in Escherichia coli TG1 (DE3) by UV-visible scanning spectrophotometric analysis
pKd: −log10 of the molar value.
Lab note: compare pKd against 4. Equal or greater, write condition met. Smaller, write condition not met.

In: API: above_or_equal(metric=pKd, cutoff=4) for item Fc1ccc(-c2nn(-c3ccccc3)cc2Cn2cncn2)cc1
Out: condition met

In: API: above_or_equal(metric=pKd, cutoff=4) for item Brc1ccc(-c2nn(-c3ccccc3)cc2Cn2ccnc2)cc1
Out: condition met

In: API: above_or_equal(metric=pKd, cutoff=4) for item Cc1ccc(-c2nn(-c3ccccc3)cc2Cn2ccnc2)cc1
Out: condition met

In: API: above_or_equal(metric=pKd, cutoff=4) for item c1ccc(-c2nn(-c3ccccc3)cc2Cn2cncn2)cc1
Out: condition met

In: API: above_or_equal(metric=pKd, cutoff=4) for item Cc1ccc(-c2nn(-c3ccccc3)cc2Cn2cncn2)cc1
Out: condition not met

In: API: above_or_equal(metric=pKd, cutoff=4) for item COc1ccc(-c2nn(-c3ccccc3)cc2C(=O)NCCn2ccnc2)cc1
Out: condition not met

In: API: above_or_equal(metric=pKd, cutoff=4) for item Cc1ccc(-c2nn(-c3ccccc3)cc2C(=O)NCCn2ccnc2)cc1
Out: condition not met

In: API: above_or_equal(metric=pKd, cutoff=4) for item Fc1ccc(-c2nn(-c3ccccc3)cc2Cn2ccnc2)cc1
Out: condition met

In: API: above_or_equal(metric=pKd, cutoff=4) for item Brc1ccc(-c2nn(-c3ccccc3)cc2Cn2cncn2)cc1
Out: condition not met
